Entries annotated with measured Antimycobacterial Activity MIC M. aurum
system: M. aurum; assay: Microdilution broth resazurin assay, MIC; assay type: cell-based, Mycolicibacterium aurum

Cc1nc2cc(Cl)ccc2c(=O)n1Cc1ccc2ccccc2c1
≥125 µg/mL
Cc1nc2cc(Cl)ccc2c(=O)n1Cc1ccc(Cl)c(Cl)c1
≥125 µg/mL
COc1ccc(Cn2c(C)nc3cc(Cl)ccc3c2=O)c(OC)c1
≥125 µg/mL
COc1ccc(Cn2c(C)nc3ccccc3c2=O)c(OC)c1
≥500 µg/mL

Could you now consider this next compound?
Name the recorded Antimycobacterial Activity MIC M. aurum for `COc1cccc(Cn2c(C)nc3cc(Cl)ccc3c2=O)c1` . ≥125 µg/mL

###

test system: Mtb H37Ra; experiment: Microdilution broth resazurin assay, MIC; type: cell-based, Mycobacterium tuberculosis; details: Mycobacterium tuberculosis, H37RA; read-out: Antimycobacterial Activity MIC Mtb H37Ra
Entries annotated with measured MIC

These recorded examples may help you get a feel for the data.
Cc1nc2cc(Cl)ccc2c(=O)n1Cc1cccc(C(=O)O)c1
≥ 62.5 µg/mL
Cc1nc2cc(Cl)ccc2c(=O)n1/N=C/c1cccc(F)c1
≥ 62.5 µg/mL
NNC(=O)c1ccncc1 [INH, isoniazid, reference compound]
0.25 µg/mL

Name the recorded MIC for `Cc1nc2cc(Cl)ccc2c(=O)n1/N=C/c1ccc(O)cc1` . ≥ 62.5 µg/mL

###

tested on: M. aurum; test: Microdilution broth resazurin assay, MIC; format: cell-based, Mycolicibacterium aurum; details: Table S5 matching pairs series A and B
outcome measure: Antimycobacterial Activity MIC M. aurum

Name the recorded Antimycobacterial Activity MIC M. aurum for `Cc1nc2cc(Cl)ccc2c(=O)n1Cc1ccc(C(F)(F)F)cc1` . ≥ 500 µg/mL

Name the recorded Antimycobacterial Activity MIC M. aurum for `Cc1nc2cc(Cl)ccc2c(=O)n1Cc1cccc(Cl)c1` . ≥ 250 µg/mL

Name the recorded Antimycobacterial Activity MIC M. aurum for `COc1ccc(Cn2c(C)nc3ccccc3c2=O)c(OC)c1` . ≥ 500 µg/mL

###

test system: M. smegmatis; experiment: Microdilution broth resazurin assay, MIC; type: cell-based, Mycolicibacterium smegmatis; conditions: Mycolicibacterium smegmatis, read-out: Antimycobacterial Activity MIC M. smeg.
outcome measure: MIC

Name the recorded MIC for `Cc1nc2cc(Cl)ccc2c(=O)n1/N=C/C=C/c1ccccc1` . ≥ 31.2 µg/mL

Name the recorded MIC for `Cc1nc2cc(Cl)ccc2c(=O)n1/N=C/c1ccccc1Cl` . ≥ 31.2 µg/mL

Name the recorded MIC for `Cc1nc2cc(Cl)ccc2c(=O)n1/N=C/c1cccc(F)c1` . ≥ 62.5 µg/mL

Name the recorded MIC for `Cc1nc2cc(Cl)ccc2c(=O)n1/N=C/c1cccc(O)c1` . ≥ 62.5 µg/mL
